# System: C8166
# assay summary: Cytotoxicity against C8166 cells assessed as reduction in total cell number
# Format: cell-based
# conditions: Homo sapiens
property label: pIC50
// returns pIC50 (minus log10 of molar concentration), number only

The observed pIC50 for Cc1cn([C@H]2C[C@H](N=[N+]=N)[C@@H](CO)O2)c(=O)[nH]c1=O when tested with C8166 stands at 3.30

# COc1cc([C@@H]2c3cc4c(cc3[C@H](NC(=O)OC[C@@H]3C=C[C@H](n5cc(C)c(=O)[nH]c5=O)O3)[C@H]3COC(=O)[C@H]23)OCO4)cc(OC)c1O with C8166: pIC50 is 3.98

---

# System: C8166
# assay summary: Cytotoxicity against C8166 cells assessed as reduction in total cell number
# Type: cell-based
# conditions: Homo sapiens
Give measured IC50 for each item. Keep answers brief.
Provide only the numeric value, understood in µM.

Measured IC50 (C8166), entry COc1cc([C@@H]2c3cc4c(cc3[C@@H](NC(=O)OC[C@@H]3C=C[C@H](n5cc(C)c(=O)[nH]c5=O)O3)[C@H]3COC(=O)[C@H]23)OCO4)cc(OC)c1O : 79.1

The molecule COc1cc2c(cc1OC)[C@@H](C#N)[C@H]1COC(=O)[C@@H]1[C@@H]2c1cc(OC)c(OC)c(OC)c1 , when measured on C8166, yielded IC50 of 138

Entry COc1cc([C@@H]2c3cc4c(cc3[C@H](NC(=O)OC[C@@H]3C=C[C@H](n5cc(C)c(=O)[nH]c5=O)O3)[C@H]3COC(=O)[C@H]23)OCO4)cc(OC)c1OC , C8166 data, IC50 value: 3.39

Summary: COc1cc([C@@H]2c3cc4c(cc3[C@@H](NC(=O)OC[C@@H]3C=C[C@H](n5cc(C)c(=O)[nH]c5=O)O3)[C@H]3COC(=O)[C@H]23)OCO4)cc(OC)c1OC , C8166, IC50 = 68.2

---

# assay summary: Therapeutic index, IC50 for C8166 cells to EC50 for HIV1
# Assay type: cell-based
# conditions: human, read-out: Ratio IC50/EC50
Exercise: state measured selectivity ratio for each of the compounds provided.
Just the number.

Data point: COc1cc([C@@H]2c3cc4c(cc3[C@H](O)[C@H]3COC(=O)[C@H]23)OCO4)cc(OC)c1OC ; selectivity ratio = 53.3

For COc1cc([C@@H]2c3cc4c(cc3[C@@H](NC(=O)OC[C@@H]3C=C[C@H](n5cc(C)c(=O)[nH]c5=O)O3)[C@H]3COC(=O)[C@H]23)OCO4)cc(OC)c1OC the compound record lists selectivity ratio as 12.5

Quick note, selectivity ratio for COc1cc2c(cc1OC)[C@@H](C#N)[C@H]1COC(=O)[C@@H]1[C@@H]2c1cc(OC)c(OC)c(OC)c1 landed at 131

Per the record, COc1cc([C@@H]2c3cc4c(cc3[C@H](NC(=O)OC[C@@H]3C=C[C@H](n5cc(C)c(=O)[nH]c5=O)O3)[C@H]3COC(=O)[C@H]23)OCO4)cc(OC)c1O has selectivity ratio of 355

Query COc1cc([C@@H]2c3cc4c(cc3[C@H](NC(=O)OC[C@@H]3C=C[C@H](n5cc(C)c(=O)[nH]c5=O)O3)[C@H]3COC(=O)[C@H]23)OCO4)cc(OC)c1OC yields selectivity ratio of 14.4

Entry COc1cc([C@@H]2c3cc4c(cc3[C@@H](NC(=O)OC[C@@H]3C=C[C@H](n5cc(C)c(=O)[nH]c5=O)O3)[C@H]3COC(=O)[C@H]23)OCO4)cc(OC)c1O — recorded selectivity ratio = 467

Record Cc1cn([C@H]2C[C@H](N=[N+]=N)[C@@H](CO)O2)c(=O)[nH]c1=O . Reported selectivity ratio: 55600
